# Study system: CSF1R (Homo sapiens, UniProt P07333)
# Sequence (P07333 20-972): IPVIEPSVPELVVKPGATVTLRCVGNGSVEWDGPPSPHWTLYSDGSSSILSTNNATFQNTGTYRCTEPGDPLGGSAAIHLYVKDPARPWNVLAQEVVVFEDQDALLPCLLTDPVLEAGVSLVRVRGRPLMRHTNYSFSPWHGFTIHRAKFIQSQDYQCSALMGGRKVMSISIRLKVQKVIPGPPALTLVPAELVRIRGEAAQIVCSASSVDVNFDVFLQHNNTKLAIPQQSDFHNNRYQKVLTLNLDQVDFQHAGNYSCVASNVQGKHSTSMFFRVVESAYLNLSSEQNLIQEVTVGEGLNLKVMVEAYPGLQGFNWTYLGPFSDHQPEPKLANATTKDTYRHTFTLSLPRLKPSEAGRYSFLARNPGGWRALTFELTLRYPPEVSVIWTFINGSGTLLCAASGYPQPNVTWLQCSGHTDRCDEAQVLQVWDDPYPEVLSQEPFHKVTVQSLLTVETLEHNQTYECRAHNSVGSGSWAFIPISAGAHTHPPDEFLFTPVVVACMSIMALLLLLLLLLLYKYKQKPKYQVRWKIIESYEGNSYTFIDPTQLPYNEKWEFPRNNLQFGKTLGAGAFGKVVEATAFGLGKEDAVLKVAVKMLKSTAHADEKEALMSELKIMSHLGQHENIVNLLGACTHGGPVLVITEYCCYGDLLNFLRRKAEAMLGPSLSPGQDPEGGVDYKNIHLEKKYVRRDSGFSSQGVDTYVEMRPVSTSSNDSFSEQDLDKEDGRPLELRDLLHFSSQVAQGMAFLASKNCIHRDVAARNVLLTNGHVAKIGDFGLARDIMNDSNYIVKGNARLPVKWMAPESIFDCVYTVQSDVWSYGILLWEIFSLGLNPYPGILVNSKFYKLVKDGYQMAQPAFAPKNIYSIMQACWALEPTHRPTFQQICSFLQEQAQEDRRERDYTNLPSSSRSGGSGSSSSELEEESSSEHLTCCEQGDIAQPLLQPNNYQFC
# Test details: KINOMEscan competition binding assay for CSF1R
# Parameters: DNA tag for qPCR (not a peptide); host or cells: E. coli/T7 phage or HEK-293
# Condition summary: @ 0.1 uM; read-out: CSF1R kinase binding activity, Range
Quantity measured: inhibition at 0.1 µM

**Q:** # value lookup — system CSF1R (Homo sapiens, UniProt P07333), readout inhibition at 0.1 µM, item COc1cc2nccc(Oc3ccc(NC(=O)c4nn(C5CC5)cc4NCC(F)(F)F)nc3)c2cc1OC
**A:** ≥ 80%

**Q:** # value lookup — system CSF1R (Homo sapiens, UniProt P07333), readout inhibition at 0.1 µM, item COc1cc2nccc(Oc3ccc(NC(=O)c4nn(C5CCCC5)cc4OCC(F)(F)F)cn3)c2cc1OC
**A:** < 50%

**Q:** # value lookup — system CSF1R (Homo sapiens, UniProt P07333), readout inhibition at 0.1 µM, item COc1cc2nccc(Oc3ccc(NC(=O)c4nn(CCO)cc4OCC(F)(F)F)c(F)c3)c2cc1OC
**A:** ≥ 80%

**Q:** # value lookup — system CSF1R (Homo sapiens, UniProt P07333), readout inhibition at 0.1 µM, item COc1cc2nccc(Oc3ccc(NC(=O)c4nn(CCO)cc4OCC(F)(F)F)nc3)c2cc1OC
**A:** ≥ 80%

**Q:** # value lookup — system CSF1R (Homo sapiens, UniProt P07333), readout inhibition at 0.1 µM, item COc1cc2nccc(Oc3ccc(NC(=O)c4nn(C5CC5)cc4OCCF)nn3)c2cc1OC
**A:** ≥ 80%

**Q:** # value lookup — system CSF1R (Homo sapiens, UniProt P07333), readout inhibition at 0.1 µM, item CCn1cc(OCC(F)(F)F)c(C(=O)Nc2ccc(Oc3ccnc4cc(OC)c(OC)cc34)cn2)n1
**A:** ≥ 80%

**Q:** # value lookup — system CSF1R (Homo sapiens, UniProt P07333), readout inhibition at 0.1 µM, item COc1cc2nccc(Oc3ccc(NC(=O)c4nn(CC(C)C)cc4OCC(F)(F)F)nc3)c2cc1OC
**A:** ≥ 80%

**Q:** # value lookup — system CSF1R (Homo sapiens, UniProt P07333), readout inhibition at 0.1 µM, item COc1cc2nccc(Oc3ccc(NC(=O)c4nn(CC5CC5)cc4OCC(F)(F)F)nc3)c2cc1OC
**A:** ≥ 80%

**Q:** # value lookup — system CSF1R (Homo sapiens, UniProt P07333), readout inhibition at 0.1 µM, item CNCCn1cc(OCC(F)(F)F)c(C(=O)Nc2ccc(Oc3ccnc4cc(OC)c(OC)cc34)nn2)n1
**A:** < 50%

**Q:** # value lookup — system CSF1R (Homo sapiens, UniProt P07333), readout inhibition at 0.1 µM, item COc1cc2nccc(Oc3ccc(NC(=O)c4nn(C5CC5)cc4OCC(F)(F)F)nc3)c2cc1OC
**A:** ≥ 80%

**Q:** # value lookup — system CSF1R (Homo sapiens, UniProt P07333), readout inhibition at 0.1 µM, item CNCCn1cc(OCC(F)(F)F)c(C(=O)Nc2ccc(Oc3ccnc4cc(OC)c(OC)cc34)c(F)c2)n1
**A:** < 50%

**Q:** # value lookup — system CSF1R (Homo sapiens, UniProt P07333), readout inhibition at 0.1 µM, item COc1cc2nccc(Oc3ccc(NC(=O)c4nn(C5CCN(C)C5)cc4OCC(F)(F)F)cc3F)c2cc1OC (stereo not shown)
**A:** 50 to 80%

**Q:** # value lookup — system CSF1R (Homo sapiens, UniProt P07333), readout inhibition at 0.1 µM, item COc1cc2nccc(Oc3ccc(NC(=O)c4nn(CCO)cc4OCC(F)(F)F)cc3C)c2cc1OC
**A:** < 50%
